Here the recorded combination Emax is given for each entry.
tested on: ASH-3 (Thyroid Gland Carcinoma); test: combination Emax (second highest fraction inhibited in the dose matrix, 72 h); higher = more inhibition; extreme values may be limits of the assay
metric_name: combination Emax

compound	test_result
Cn1cnc2c(F)c(Nc3ccc(Br)cc3Cl)c(C(=O)NOCCO)cc21 [Selumetinib] + C[C@@H]1COCCN1C2=NC(=NC(=C2)C3(CC3)[S@](=N)(=O)C)C4=C5C=CNC5=NC=C4 [AZD6738] (first compound max 10 µM, 7x7, partner max 10 µM)	0.607
COc1cc2c(cc1OCCCCCOc1cc3c(cc1OC)C(=O)N1C=C(C)C[C@H]1C=N3)N=C[C@@H]1CC(C)=CN1C2=O [SG3199] + O=C(c1cc(Cc2n[nH]c(=O)c3ccccc23)ccc1F)N1CCN(C(=O)C2CC2)CC1 [Olaparib] (first compound max 0.001 µM, 7x7, partner max 10 µM)	0.0979

---

test system: HSC-2 (Oral Cavity Carcinoma); experiment: Bliss excess, mean over the matrix (fraction); higher = more synergy

compound	tested_target	Bliss excess
C[C@@H](Nc1cc(F)cc(F)c1)c1cc(C(=O)N(C)C)cc2c(=O)cc(N3CCOCC3)oc12 [AZD8186] + CC(=O)c1c(C)c2cnc(Nc3ccc(N4CCNCC4)cn3)nc2n(C2CCCC2)c1=O [Palbociclib] (first compound max 10 µM, 7x7, partner max 10 µM)	HSC-2 (Oral Cavity Carcinoma)	0.0014
CN(C)CCCOc1ccc(-c2ccc3ncc4c(c3c2)n(C2CCOCC2)c(=O)n4C)cn1 [AZD0156] + C=CCn1c(=O)c2cnc(Nc3ccc(N4CCN(C)CC4)cc3)nc2n1-c1cccc(C(C)(C)O)n1 [AZD1775] (first compound max 1 µM, partner max 1 µM)	HSC-2 (Oral Cavity Carcinoma)	-0.0507
Cc1cc2ncnn2cc1Nc1ncc2c(n1)n(C1CCOCC1)c(=O)n2C [AZD7648] + CCN(CCO)CCCOc1ccc2c(Nc3cc(CC(=O)Nc4cccc(F)c4)[nH]n3)ncnc2c1 [AZD2811] (first compound max 10 µM, 7x7, partner max 1 µM)	HSC-2 (Oral Cavity Carcinoma)	0.0999
CS(=O)(=O)CCNCc1ccc(-c2ccc3ncnc(Nc4ccc(OCc5cccc(F)c5)c(Cl)c4)c3c2)o1 [Lapatinib] + Cn1cnc2c(F)c(Nc3ccc(Br)cc3Cl)c(C(=O)NOCCO)cc21 [Selumetinib] (first compound max 10 µM, 7x7, partner max 10 µM)	HSC-2 (Oral Cavity Carcinoma)	-0.0044

---

system: GI-1 (Glioblastoma); assay: Bliss excess, mean over the matrix (fraction); higher = more synergy
Here the recorded Bliss excess is given for each entry.

compound	Bliss excess
CS(=O)(=O)CCNCc1ccc(-c2ccc3ncnc(Nc4ccc(OCc5cccc(F)c5)c(Cl)c4)c3c2)o1 [Lapatinib] + NC1(c2ccc(-c3nc4ccn5c(=O)[nH]nc5c4cc3-c3ccccc3)cc2)CCC1 [MK-2206] (first compound max 10 µM, 7x7, partner max 10 µM)	0.0275
COc1cccc(OCCCN)c1-c1cc(Nc2cnc(C#N)cn2)n[nH]1 [Prexasertib] + CN(C)CCCOc1ccc(-c2ccc3ncc4c(c3c2)n(C2CCOCC2)c(=O)n4C)cn1 [AZD0156] (first compound max 1 µM, 7x7, partner max 1 µM)	0.0084
Cc1c2c(nn1C)CSCc1cc(n(C)n1)CSc1cc(c3ccccc3c1)OCCCc1c(C(=O)O)n(C)c3c-2c(Cl)ccc13 [AZD5991] + CN(C)CCCOc1ccc(-c2ccc3ncc4c(c3c2)n(C2CCOCC2)c(=O)n4C)cn1 [AZD0156] (first compound max 1 µM, 7x7, partner max 1 µM)	0.0067
CN(C)CCCOc1ccc(-c2ccc3ncc4c(c3c2)n(C2CCOCC2)c(=O)n4C)cn1 [AZD0156] + O=C(c1cc(Cc2n[nH]c(=O)c3ccccc23)ccc1F)N1CCN(C(=O)C2CC2)CC1 [Olaparib] (first compound max 3 µM, partner max 3 µM)	0.0337
C=CCn1c(=O)c2cnc(Nc3ccc(N4CCN(C)CC4)cc3)nc2n1-c1cccc(C(C)(C)O)n1 [AZD1775] + C1CN(CCC1(C(=O)N[C@@H](CCO)C2=CC=C(C=C2)Cl)N)C3=NC=NC4=C3C=CN4 [Capivasertib] (first compound max 3 µM, partner max 3 µM)	0.0543
COc1nnc2ccc(N3CCC(c4ccc(OCCN5CCN(C)C(=O)[C@H]5C)cc4)CC3)nn12 [AZD5153] + C[C@@H]1COCCN1C2=NC(=NC(=C2)C3(CC3)[S@](=N)(=O)C)C4=C5C=CNC5=NC=C4 [AZD6738] (first compound max 1 µM, 7x7, partner max 10 µM)	0.0053
CC1(C)CCC(CN2CCN(c3ccc(C(=O)NS(=O)(=O)c4ccc(NCC5CCOCC5)c([N+](=O)[O-])c4)c(Oc4cnc5[nH]ccc5c4)c3)CC2)=C(c2ccc(Cl)cc2)C1 [Venetoclax] + C[C@@H](Nc1cc(F)cc(F)c1)c1cc(C(=O)N(C)C)cc2c(=O)cc(N3CCOCC3)oc12 [AZD8186] (first compound max 1 µM, 7x7, partner max 3 µM)	-0.0091
C=CCn1c(=O)c2cnc(Nc3ccc(N4CCN(C)CC4)cc3)nc2n1-c1cccc(C(C)(C)O)n1 [AZD1775] + Nc1ccn([C@@H]2O[C@H](CO)[C@@H](O)C2(F)F)c(=O)n1 [Gemcitabine] (first compound max 1 µM, partner max 0.3 µM)	0.0649
CS(=O)(=O)CCNCc1ccc(-c2ccc3ncnc(Nc4ccc(OCc5cccc(F)c5)c(Cl)c4)c3c2)o1 [Lapatinib] + C[C@@H](Oc1cc(-c2cnn(C3CCNCC3)c2)cnc1N)c1c(Cl)ccc(F)c1Cl [Crizotinib] (first compound max 10 µM, 7x7, partner max 10 µM)	-0.0444
C[C@@H](c1ccc2nccn2c1)n1nnc2ncc(-c3cnn(C)c3)nc21 [Savolitinib] + CC1(C)CCC(CN2CCN(c3ccc(C(=O)NS(=O)(=O)c4ccc(NCC5CCOCC5)c([N+](=O)[O-])c4)c(Oc4cnc5[nH]ccc5c4)c3)CC2)=C(c2ccc(Cl)cc2)C1 [Venetoclax] (first compound max 1 µM, 7x7, partner max 1 µM)	0.0079
CN(CCO)CC[C@H](CSc1ccccc1)Nc1ccc(S(=O)(=O)NC(=O)c2ccc(N3CCC([C@@H](O)c4ccccc4-c4ccc(Cl)cc4)CC3)cc2)cc1S(=O)(=O)C(F)(F)F [AZD4320] + C[C@@H]1COCCN1C2=NC(=NC(=C2)C3(CC3)[S@](=N)(=O)C)C4=C5C=CNC5=NC=C4 [AZD6738] (first compound max 1 µM, 7x7, partner max 10 µM)	-0.0203
C=CCn1c(=O)c2cnc(Nc3ccc(N4CCN(C)CC4)cc3)nc2n1-c1cccc(C(C)(C)O)n1 [AZD1775] + O=C(c1cc(Cc2n[nH]c(=O)c3ccccc23)ccc1F)N1CCN(C(=O)C2CC2)CC1 [Olaparib] (first compound max 1 µM, partner max 10 µM)	0.0056
Cc1c2c(nn1C)CSCc1cc(n(C)n1)CSc1cc(c3ccccc3c1)OCCCc1c(C(=O)O)n(C)c3c-2c(Cl)ccc13 [AZD5991] + C=CCn1c(=O)c2cnc(Nc3ccc(N4CCN(C)CC4)cc3)nc2n1-c1cccc(C(C)(C)O)n1 [AZD1775] (first compound max 1 µM, partner max 1 µM)	-0.0109
